Origin of measurements: patent EP4424325A1

# system tested: T1, recombinant hTfR, extracellular region of human transferrin receptor with a histidine tag added at the … (human, UniProt P02786 89-760)
# T1 construct: also called hTfR-ECD(Histag); human TfR; not shown: N-terminal histidine tag
# T1 sequence (P02786 89-760): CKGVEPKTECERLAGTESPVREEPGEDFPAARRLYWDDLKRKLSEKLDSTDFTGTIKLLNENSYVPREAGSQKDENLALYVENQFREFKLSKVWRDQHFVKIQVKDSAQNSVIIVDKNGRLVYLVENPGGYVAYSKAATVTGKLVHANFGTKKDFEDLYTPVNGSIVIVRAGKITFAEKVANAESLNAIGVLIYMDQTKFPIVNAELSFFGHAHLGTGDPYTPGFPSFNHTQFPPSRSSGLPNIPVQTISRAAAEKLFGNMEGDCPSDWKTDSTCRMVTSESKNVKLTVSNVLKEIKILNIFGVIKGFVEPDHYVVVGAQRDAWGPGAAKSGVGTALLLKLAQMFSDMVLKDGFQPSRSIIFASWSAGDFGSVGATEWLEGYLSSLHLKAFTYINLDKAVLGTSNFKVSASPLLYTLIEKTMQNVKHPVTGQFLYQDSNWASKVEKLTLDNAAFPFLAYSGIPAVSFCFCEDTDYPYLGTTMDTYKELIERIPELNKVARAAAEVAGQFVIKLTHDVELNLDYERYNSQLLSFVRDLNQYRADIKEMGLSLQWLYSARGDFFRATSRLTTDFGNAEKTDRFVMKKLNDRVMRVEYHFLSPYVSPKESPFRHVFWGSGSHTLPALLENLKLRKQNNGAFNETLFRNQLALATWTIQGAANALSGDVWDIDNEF
# method description: BLI (OctetRED96), His-tagged TfR ECD on Ni-NTA sensor, peptide in solution
measure: kon (M⁻¹ s⁻¹)
Output spec: scalar in M⁻¹ s⁻¹, unitless text.

Which kon reading was recorded for the binder hTfR affinity peptide 1 (VHH, Expressed in CHO-S cells, purified on Anti-FLAG M1 agarose; also called clone 1; VHH(1)) VHH: QVQLVESGGGLVHPGGSLRLSCVASGTSFSLNVVTWYRQALGKQREWVATINQSEAPTYADSVKGRFTISRDGAKNTVYLQMNSLVTEDTALYYCYDRYNEIRGQGTQVTVSS ?
280000

Which kon reading was recorded for the binder hTfR affinity peptide 3 (VHH, The tag is stated only for peptide 1; Peptides 2 to 5 were obtained 'in the same manner'; also called clone 3; VHH(3)) VHH: QVQLVESGGGLVQPGESLRLSCAASGSIFDIYVMRWYRQAPGNQREWVASIYDGGRNDYDNVVKGRFTISRDNAKNTVHLQMNSLKPEDTAVYFCNVLTYAGRPYWGQGTQVTVSS ?
571000

Which kon reading was recorded for the binder hTfR affinity peptide 5 (VHH, Same CDRs as peptide 3; The tag is stated only for peptide 1; Peptides 2 to 5 were obtained 'in the same manner'; also called clone 5; VHH(5)) VHH: QVQLVESGGGLVQPGGSLRLSCAASGSIFDIYVMRWYRQAPGKGLEWVASIYDGGRNDYDNVVKGRFTISRDNSKNTLYLQMNSLRAEDTAVYFCNVLTYAGRPYWGQGTQVTVSS ?
407000

Which kon reading was recorded for the binder hTfR affinity peptide 6 (VHH, One amino acid of CDR2 of peptide 5 is substituted; also called VHH6) VHH: QVQLVESGGGLVQPGGSLRLSCAASGSIFDIYVMRWYRQAPGKGLEWVASIYAGGRNDYDNVVKGRFTISRDNSKNTLYLQMNSLRAEDTAVYFCNVLTYAGRPYWGQGTQVTVSS ?
428000
